# targetOrTestSystem: Fibroblast growth factor 2 (Homo sapiens)
# test: FGF2 binders on small-molecule microarrays, primary screen, biochemical, small-molecule microarray, 635/667 nm fluorescence (AID 1133)
# conditionInfo: small-molecule microarray binding, FGF2, fluorescence 635/667; higher = more signal
So basically every entry gets a class from its composite z-score, ranges being range 1: < 0.07; range 2: ≥ 0.07 and < 0.8; range 3: ≥ 0.8

Worked examples, 5 molecules total:
>>> assignedcategory("NC(=O)NCC#Cc1ccc2c(c1)[C@]1(C(=O)N2)[C@H](C(N)=O)[C@H]2C(=O)O[C@H](c3ccccc3)[C@H](c3ccccc3)N2[C@@H]1c1ccccc1OCCO")
"range 2"
>>> assignedcategory("Cc1ccc(N2C(=O)c3ccccc3[C@](C)(C(=O)NCC(C)C)[C@@H]2c2ccc(CO)cc2)nc1")
"range 1"
>>> assignedcategory("C[C@H]1C2[C@H](Cc3ccccc3)NC(=O)[C@]23C(=O)N[C@H](Cc2ccccc2)C(=O)N[C@@H](Cc2ccccc2)C(=O)NC/C=C\\C/C=C/C3[C@@H]2O[C@]12C (some centres undefined)")
"range 2"
>>> assignedcategory("CC(C)[Si]1(C(C)C)OCc2cc(C3CC3)nc(-c3ccccc3)c21")
"range 1"
>>> assignedcategory("C=C(CCCC)C(=O)CC[C@@H](OC(=O)c1cccnc1)c1cccc(OCCO)c1")
"range 3"

query: Assign a bin to "CCOC(=O)C[C@H]1[C@H](OC(=O)c2cc3ccccc3oc2=O)[C@@H](NC(=O)c2ccc3ccccc3c2)c2cc(OCCCO)ccc2N1C(=O)c1ccc2ccccc2n1"
result: range 3

query: Assign a bin to "COC(=O)[C@@]1(Cc2ccc(OC)cc2)[C@H]2c3cc(C(=O)N(C)C)n(CCc4ccc(OC)c(Br)c4)c3C[C@H]2CN1C(=O)c1ccccc1"
result: range 1

query: Assign a bin to "O=C(O)[C@@H]1Cc2c([nH]c3ccccc23)[C@@H](c2ccccc2)N1"
result: range 2

query: Assign a bin to "CCN1C(C)=C(C(=O)OC)[C@@H](c2ccccc2)N2C(=O)[C@@]3(C(=O)OC)O[C@@]12[C@@H]1C(=O)N(c2ccccc2)C(=O)[C@@H]13"
result: range 3

query: Assign a bin to "COc1cccc([C@@H]2[C@@H](C)CC[C@H]3C(=O)N4[C@H](c5cccc(OC)c5)[C@@H](C)CC[C@H]4C(=O)N23)c1"
result: range 2

query: Assign a bin to "C[N+](C)(C)CCCC[C@@H]1NC(=O)[C@H]2C[C@@H](C(=O)NCc3ccc(F)cc3)[C@@H](c3cccc(OCCO)c3)N2C1=O"
result: range 3

query: Assign a bin to "CO[C@@H]1COC(=O)[C@H](COCc2ccccc2)NC(=O)CC=C[C@@H](C)[C@H](OC)COC(=O)[C@H](COCc2ccccc2)NC(=O)CC=C[C@H]1C"
result: range 2

query: Assign a bin to C=CCC(OC(C)=O)[C@@H]1[C@@H](N(Cc2ccc(-c3ccccc3)cc2)C(=O)c2ccc(-c3ccccc3)cc2)c2cc(OCCCO)ccc2N1C(=O)Cc1ccc(OC)cc1 (some centres undefined)
result: range 1
